Assign EC50 to each entry below.
# target of assay: T1, Fusion protein of extracellular domain of cynomolgus monkey TIGIT and mouse IgG2a Fc fragment (cynomolgus … (cynomolgus monkey))
# T1 construct: The entry includes the signal peptide (limits not recoverable) and the mouse IgG2a Fc
# T1 sequence (chain, as listed by the source limits assumed): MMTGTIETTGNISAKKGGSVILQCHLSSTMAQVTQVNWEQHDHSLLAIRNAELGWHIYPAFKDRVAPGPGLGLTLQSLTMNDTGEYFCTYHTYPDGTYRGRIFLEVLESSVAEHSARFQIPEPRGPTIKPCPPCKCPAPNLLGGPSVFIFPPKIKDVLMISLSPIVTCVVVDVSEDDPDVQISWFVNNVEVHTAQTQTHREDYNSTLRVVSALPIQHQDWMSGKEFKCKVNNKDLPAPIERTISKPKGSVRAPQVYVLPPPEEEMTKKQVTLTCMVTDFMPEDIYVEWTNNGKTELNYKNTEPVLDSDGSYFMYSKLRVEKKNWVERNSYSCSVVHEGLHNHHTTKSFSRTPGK
# measurement description: ELISA, cynomolgus monkey TIGIT ECD-mFc
Answers are plain numbers, in nM.

binder: TIGIT-002-H2L3 (antibody, V domains shown, Humanized anti-TIGIT antibody) VH: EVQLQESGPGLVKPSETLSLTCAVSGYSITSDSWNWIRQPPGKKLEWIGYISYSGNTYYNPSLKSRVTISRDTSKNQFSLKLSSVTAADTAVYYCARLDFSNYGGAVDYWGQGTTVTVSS VL: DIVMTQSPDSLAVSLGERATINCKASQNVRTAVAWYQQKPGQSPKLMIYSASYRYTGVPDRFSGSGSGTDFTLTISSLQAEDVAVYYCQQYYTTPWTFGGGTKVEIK
EC50 / nM: 0.0337
--
binder: TIGIT-002-H3L1 (antibody, V domains shown, Humanized anti-TIGIT antibody) VH: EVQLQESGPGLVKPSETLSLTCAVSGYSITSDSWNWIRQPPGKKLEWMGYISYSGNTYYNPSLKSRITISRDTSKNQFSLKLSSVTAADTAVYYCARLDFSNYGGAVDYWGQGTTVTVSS VL: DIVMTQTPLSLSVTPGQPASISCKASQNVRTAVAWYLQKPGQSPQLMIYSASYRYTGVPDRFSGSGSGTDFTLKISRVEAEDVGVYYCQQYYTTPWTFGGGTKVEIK
EC50 / nM: 0.0253

Okay, next one:
Find the recorded EC50 belonging to TIGIT-070-H2L1 (antibody, V domains shown, Humanized anti-TIGIT antibody) VH: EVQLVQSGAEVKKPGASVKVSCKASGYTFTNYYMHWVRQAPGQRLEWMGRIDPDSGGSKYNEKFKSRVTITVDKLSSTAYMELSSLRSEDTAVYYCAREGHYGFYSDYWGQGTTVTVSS VL: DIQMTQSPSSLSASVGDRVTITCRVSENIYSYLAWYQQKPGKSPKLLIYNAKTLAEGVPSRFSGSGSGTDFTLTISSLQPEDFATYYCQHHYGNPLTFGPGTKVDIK and report it.
0.0124

The values you see were collected from patent US20240343803A1.
